Test system: HOP-62 NSCLC
Assay: NCI tumour cell line growth inhibition, 48 h
# reported TGI; entries follow

Worked cases, answers included:
compound	TGI
N#Cc1nc(/C=C/c2cccs2)oc1N	> 100 µM
CNC(=O)Nn1c(SC)nc2ccccc21	> 100 µM
CCCCN(CCCC)C1(c2cc3ccccc3s2)CCCCC1	29.2 µM

The reported TGI of the compound COC(=O)CCC(=O)C(CC(=O)OC)C(=O)CCC(=O)NCCc1ccccc1 (stereo unspecified) was > 100 µM

Measured TGI of Cn1c(=O)oc2cc(C(=O)CN3CCN(Cc4ccc5c(c4)OCO5)CC3)c(Cl)cc21 : > 100 µM

Recorded result, O=C([CH-]C(=O)c1ccccc1)c1ccccc1.O=C([CH-]C(=O)c1ccccc1)c1ccccc1.[CH2-]CCC.[CH2-]CCC.[Sn+4] , TGI: 3.41 µM
